- Tested on: A549
- assay: Cytostatic cell culture assay (GI50), SRB
- Format: cell-based
- assay_setup: 5 days incubation
parameter_measured: GI50 (nM)
Could you give me the number in nM? Just the number is fine.

Use these answered entries as a reference point.
compound | target | units_text | observed
CCCOc1nc(N)nc2c1ncn2CCOCP(=O)(N[C@@H](C)C(=O)OCC)Oc1ccccc1 (single isomer, unassigned) [Example 53b] | A549 | nM | 647
CCCCOC(=O)[C@H](C)NP(=O)(COCCn1cnc2c(OCCC)nc(N)nc21)Oc1ccccc1 (single isomer, unassigned) [Example 52b] | A549 | nM | 15
CCCCOC(=O)[C@H](C)NP(=O)(COCCn1cnc2c(OCCC)nc(N)nc21)Oc1ccccc1 (single isomer, unassigned) [Example 52a] | A549 | nM | 48

Hi! What's the reported GI50 for CCCOc1nc(N)nc2c1ncn2CCOCP(=O)(N[C@@H](C)C(=O)OCC)Oc1ccccc1 (single isomer, unassigned) [Example 53a] on A549? 268
